PROTOCOL_DETAILS: yeast display, Sf9 membrane polyspecificity reagent, FACS + sequencing; frameworks hold sequencing errors

SEQUENCE_CONTENT	polyreactivity (PSR sort gate)
QVQLVESGGGLVQAGGSLRLICAASGSTFNIKAMGWYRQAPGKERELVAAISSRGGSTYYADSVKGRFTISRDNAKNTVYLQMNSLKPEDTAVYYCALAAGIPQRRYYYWGQGTQVTVSS	high polyreactivity
QVQLVESGGGLVQAGGSLRLSCAASGIIFRGNAMGWYRQAPGKERELVAAISSGGSTYYADSVKGRFTISRDNAKNRVYLQMNSLKPEDTAVYYCNARWYYWGTLYGSWGHGTQVTVSS	high polyreactivity
QVQLVDSGGGLVQAGGSLRLSCAASGNIFTSYARGWYRQAPGKERELVAAISSGGRTSYADSVKGRFTISRDNAMNTVFLQMNSLKPDYTAVYYCAAYYRRWPREYYYWGQGTQVSVSS	high polyreactivity
QVQLVESGGGLVQAGGSLRLSCAASGSIFGWYAMGWYRQAPGKERELVAAIDSATSTYYADSVKGRFTISRDNAKNTVYLQMNSLKPEDTAFYYCAAVQLYQKHQITYVAHEYWGQGTQVTVSS	low polyreactivity
QVQLVESGGGLVQAGGSLRLSCAASGSTFVANGMGWYRQAPGKERELVAVISRNGGTTYYADSVKGRFTISRDNAKNTVYLQMNSLKPEDTAVYYCNAKLPVFHYFWMDYWGQGTQVTVSS	high polyreactivity
QVQLVESGGGLVQAGGSLRLSCAASGIIFVRNAMGWYRQAPGKERELVAAITWRGSTYYADSVKGRFTISRDNAKNTVYLQMNSLKPEDTAVYYCAAQWLYLEYDYWGQGTQVTVSS	high polyreactivity
QVQLVESGGGLVQAGGSLRLSCAASGFIFRSYAMGWYRQAPGKERELVAAINSRAGNTYYADSVKGRFTISRDNAKNTVYLQINSLKPEDNAVYYCNAVRHTYGYYSWGQGTQVTVSS	high polyreactivity
QVQLVESGGGLVQAGGSLRLSCAASGYIFPSNTMGWSIQAPGKERELVATISRSGVSTYYADSVKGRFTISRDYAKNTVYLHMYSLKPDDTAVYYCAASTVYYYRSKWLSSFDYWGQGTQVTVSS	low polyreactivity
QVQLVESGGGLVQAGGSLRLSCAASGRIFKWNAMGWYRQAPGKERELVAAITYRDDTTYYADSVKGRFTISRDNAKNTVYLQMNSLKPEDTAVYYCNAAWRPCRPFRGFTEGEYDYWGQGTQVTVSS	low polyreactivity
QVQLVESGGGLVQPGGSLRLSCAASGSTFWLYAMGWYRQAPGQERELVAAISARTGSTYYADSVKGRFTISRDNAKNTVYLQMNSLKPEDTAVYYCNVRYRGTPYGYWGQGTQVTVSS	low polyreactivity
QVQLVESGGGLVQAGGSLRLSCAASGFIFSVYAMGWYRQAPGKERELVAAITGNGVSTYYADSVKGRFTISRDNAKNTVYLQMISLKPEDTAVYSCATYGRRWYSSRRLDYWGQGTQVTVSS	low polyreactivity

---

PROTOCOL_DETAILS: yeast display, Sf9 membrane polyspecificity reagent, FACS + sequencing; frameworks hold sequencing errors

SEQUENCE_CONTENT	polyreactivity (PSR sort gate)
QVQLVESGGGLVQAGGSLRLSCAASGRTFLVNAMGWYRQAPGKERELVAAITANGGNTYYADSVKGRFTISRDNAKNTVYLQMNSLKPEDTAVYYCAKLSHRGQSTGVDYWGQGTQVTVSS	low polyreactivity
QVQHVESGGGLVQAGGSLRLSSAASGLTFYHYTMGWYRQAPGKERELVAAITKNGGSTYYADSVKGRFTISRDNAKNTVYLQMNSLKPEDTAVYYCNVGPRRVDRSRAASSDYDYWGQGTQVTVSS	high polyreactivity
QVQLVESGGGLVQAGGSLRLSCAASGSIFPIYAMGWYRQATGKERELVAAINSGGGTNYADSVKGRFTISRDNAKNTVYLQMNSLKPEDTAVYYCAKSRYDYTKTEGGYWGQGTQVTVSS	low polyreactivity
QVQLVESGGGLVQAGGSLRLICAASGSTLFYNAMGWYRQAPGKERELVAAISSGVRTNYADSVKGRFTISRDNAKITVYLQMNSLKPEDTALYYCAAATYNQDYSYDYWGQGTQVTVSS	low polyreactivity
QVQLVESGAGLVQAGGSILLICAASGLTFYKNAMGWYRQAPAKERELVAVISSSGGSTYYADSVKGRFTISRDNAKNTVYLQMNSLKPEDTAVYYCARDLFTEYRWGLLTYDYWGQGTQVTVSS	low polyreactivity
QVQLVESGGGLVQAGGSLRLSCAAYGRTFWRNAMGWYRQAPGKEREWVAAISRSGDSTRYADSLKGRFTISRDNAKNTFYLQMNSLKPEDTAVYYCNKLGTRVYEMDYWGQGTQVTVSS	high polyreactivity
QVQLVESGGGLVQAGGSLRLSCAASGSTFYRYAMGWYRQAPGKEREFVAAISRSGGSTYYADSVKGRFTISRDNAKNTVYLQMNSLKPEDTAVYYCNKYYWYPYGRAHYYGYWGQGTQVTVSS	high polyreactivity
QVQLVESGGCLVQAGGSLRLSCAASGRTFYTYAIGWYRQAPGQERELVAGIRTGGGSTYYADSVKGRFTISRDNAKNTVYLQMNSLKPEDTAVYYCAADTYDGYDYWGQGTQVTVSS	low polyreactivity
QVQLVESGGGLVQAGGSLRLSCAASGFTFARYTMGWYRQAPGKERELVAAISSRGSSTYYADSVKGRFTISRDNAKNTVFLQMNSLKPEDTAVYYCAASPYDTQTLDYDYWGQGTQVTVSS	high polyreactivity
QVQLVESGGGLVQAGGSLRLSCAASGFTFRVNAMGWYRQAPGKERELVAVISHSGGSTYYADSVKGRFTISRDNAKNTVYLQMNSLKPEDTAVYYCAKDRVVLYKYYRVDYWGQGTQVTVSS	low polyreactivity
QDQLVESGGGLVQAGGSLRLSCAASGGIFPVNALGWYRQAPVKERELVATITYDGGNTYYADSVKGRFTISRDNAKKTVYLQMNSLKREDTAVYYCAKDSLSFYGYISYIGYGYDYWGQGTQVTVSS	low polyreactivity
QVQLVESVGGLVQAGGSLRLSCAASGRTFFKYAMGLYRQAPGKERELVAAITGRGGSTYADSVKGRFTISRDNAKNTVYLQMNSLKPEDTAVYYCAKVYQRGAQYYYYKYDYWGQGTQVTVSS	high polyreactivity
QVQLVESGGGLVQAGGSLRLSCAASGGTFARYAMGWYRQAPGKERELVAAITRSGGTTYYADSVKGRFTISRDNAKNTVYLQMNSLKPEDTAVYYCAALPIVDYYGYGYWGQGTQVTVSS	high polyreactivity
QVQLVESGGGLVQAGGSLRLSCAASGSTFEPYAMGCYRQAPGKERELVAAISWSGGSTYYADSVKGRFTISRDNAKNTVDLQMNSLKPEDTAVYYCAAESGVPYYLPVVIYYYWGQGTQVTVSS	high polyreactivity
QVQLVESGGGLVQAGGSLRLSCADSGSIFAYYAMGWYRQAPGKERELVADITSSGGITYYADSVKGRFTISRDNAKNTVYLQMNSLKPEDTAVYYCNADSLAIVGGSYPYDYWGQGTQVTVSS	low polyreactivity
QVQLVESGGGLVQAGGSLRLSCAASGRTLRKYAMGWYRQAPGKERELVAAITWTGGTTYYADSVKWRFTISRDNAKNTVYLQMNSLKPEDTAVYYCATVRSYGYGYDFWGQGTQVTVSS	high polyreactivity
QVQLVESGGGLVQAGGSLRLSCAASGSTFSINAMGWYRQAPGKERELVAAITWRGTRTYYADSVKGRFTISRDNAKNTVYLQMNSLTPEDTAVYYCAATGSGQASYYYWGQGTQVTVSS	high polyreactivity
QVQLVESGGGLVQAGGSLRLSCAASGSIFKVNTMGWYRQAPGKERELVAAISSSDDSTYYADSVKGRFTISRDNAKNTVYLQMNSLKPEDTAVYYCAADGSSVDSGGINDEYWGQGTQVTVSS	low polyreactivity
QVQLVESGGGLVQAGGSLRLSCAASGFTFSYYVMGWYRPAPGKDRELVAAIDWSGDSTYYPDSVKGRFTISRDNAKNTVYLQMISLKPEDTAVYYCAADQHAYYPYYYWGQGTQVTVSS	low polyreactivity
QVQLVESGGGLVQAGGSLRLSSAPSGRTFLSNAMGWYRQAPGKERELVAAITWETDSTYYADSVKGLFTISRDNAKNTVYLQMNSLKPEDTAVYYCAARRYRPFTDYDGRTWWTRDYWGQGTQVTVSS	low polyreactivity
QVQLVESGGGLVQAGGSLRLSCAASGGTFGKYTMGWSRQAPGKERELVAAINKSGGSTYYADSVKGRFTISRDNAKNTVYLQMNSLKPEDTAVYYCAAGTYFLSREYNYWGQGTQVTVSS	low polyreactivity

Ref: the nanobody polyreactivity screen of Harvey et al. (2022)
